Assay: soluble on expression in E. coli; label from the status in PepcDB or PDB records

{"sequence_code": "MGSDKIHHHHHHMSVNGSQRVDLEVVANLIPPQSRVLDVGSGDGSLLELLQDTKQVDGRGLELSQRGVNECVARGLSVIQGDADKDLEFYPDKGFDFVVLSQTLQATRNPKLVLDELLRIGNRAIVSFPNFGHWRVRLSLFVKGRMPVTQDLPYSWYDTPNIHFCTIRDFVNLCEELGATVEKATALDAAGQKIGLSMPWWFWNFFGQQAVFLLKRN", "soluble on expression in E. coli": "not soluble"}
{"sequence_code": "MSLTPGRFLGWENADTASRTASDAIAVMDRRTWQALTTGHVELPCRRIHAGLWFRLLRTLLDELNTPLSACGTYAGYLRQVWQGCGHPLRAGQSLWRPYETLNPAIRLQMLEAAATAISLIEVRDISPPGEHAKLFWSELQTGFTSGLPAKPPKPEPVNHWQRAVQAISEAIIEARHDPETARSLFAMASYGRRDPASLEQLRATFAKEGIPPEFLSHYEADGPFACLRQNDGLSDKEGHHHHHH", "soluble on expression in E. coli": "not soluble"}

* * *

Assay: soluble on expression in E. coli; label from the status in PepcDB or PDB records
metric: soluble on expression in E. coli

{"sequence_code": "RYHEFLGHFMNQFTSFGVAGAHGKTSTTGLLSHSMKNITDTSYLIGDGTGRGSANAQYFVFEADEYERHFMPYHPAYSIITNIDFDHPDYFTSIDDVFSAFDDYAKQVQKGLFVYGEDSNLRKITSNAPIYYYGFEENDDFMATDIIRTTTGSNFKVKHDGQIIGEFHVPAYGRHNILNATAVIANLYVAGFDMALVAEHLKTFSGV", "metric": "soluble on expression in E. coli", "experimental_value": "not soluble"}
{"sequence_code": "MIDLHTHTIFSDGELIPSELVRRAVIHGYEAIALTDHADYTNLEQLLDAAKKAKYLEEEWDIRVLSGVELTHVPPRKIAPMAKKAKELGAEIVVVHGETISEPVAQGTNAASAACEYVDILAHPGLISEEDVRTAAENNVFLELTARNGHNRTNGHVARLALEFGATLVVNTDTHAPENLITDETALKIAMGAGL", "metric": "soluble on expression in E. coli", "experimental_value": "not soluble"}

* * *

Experiment: soluble on expression in E. coli; label from the status in PepcDB or PDB records

{"sequence_code": "MGSDKIHHHHHHMTERIDFTKSEQYTLSIRLSADGFSFSIYNPLTDNDFCFVPHPVNTGYSMTANLKDMLTKTEALKYPYKRVNILYDSPRFTPVPLELFEDEQMDTIFYHNFPKAKGNNEIVLCNVLGRSNVVILFAMDKHTHLLLTEHFPTARFFSTASPLTEYFARKSRLGNSRKLYTYIREQQMEVFCFDKGNLLLINSFPCKQTTDRVYYLLYVWQQLNYNQERDELHLTGILKDKEELLKELRNYLRQVFVISPKAEFNRSEISKIEEIPFDMQTLLLCE", "soluble on expression in E. coli": "not soluble"}
{"sequence_code": "DKCKKVYENYPVSKCQLANQCNYDCKLDKHARSGECFYDEKRNLQCICDYCEY", "soluble on expression in E. coli": "soluble"}
{"sequence_code": "MGSDKIHHHHHHMAPEDWLRAQMQGEIVALVHSHPGGLPWLSEADRRLQVQSDLPWWLVCRGTIHKFRCVPHLTGRRFEHGVTDCYTLFRDAYHLAGIEMPDFHRGDDWWRHGQNLYLDNLEATGLYQVPLSSAQPGDVLLCCFGSSVPNHAAIYCGDGELLHHIPEQLSKRERYTDKWQRRTHSLWRHREWHASAFTGICNDLAAASTFV", "soluble on expression in E. coli": "not soluble"}
{"sequence_code": "MSLIKCVCLVIEEQEKLLLVQSRNREKYYFPGGKIDIGETYKQALQRELNEELQLDIPESSLIYMHTVVGEAYPQKNMKTELNCFYTTADIDWSTLVPSQEITDLQWIDKKDEHKIAPAVITWIEEQQHFKNIEREGHHHHHH", "soluble on expression in E. coli": "soluble"}
